All figures here come from PubChem BioAssay (NCI).

- Test system: SK-MEL-28 melanoma
- procedure_text: NCI tumour cell line growth inhibition, 48 h
Measured TGI, listed per entry.

In the examples that follow, each entry is paired with its recorded TGI.
compound: COc1ccc(C2=CC(C(C)=C(C(N)=O)C(N)=O)C=C(c3ccc(Br)cc3)C2)c(OC)c1 (stereo unspecified)
TGI: > 100 µM

compound: CC(=C(c1ccc(OCCN2CCCCC2)cc1)c1ccc(OCCN2CCCCC2)cc1)c1ccc(Cl)cc1
TGI: 0.773 µM

compound: CON(C)C(=O)C(Cc1ccccc1)NC(=O)OCc1ccccc1 (stereo unspecified)
TGI: > 100 µM

stdin: Bench note: what TGI did CN1CCN(C(=O)COc2ccc(C34CC5CC(CC(C5)C3)C4)cc2)CC1 show?
stdout: 26.2 µM

stdin: Bench note: what TGI did N#CCCC[Si]12OCCN(CCO1)CCO2 show?
stdout: > 100 µM

stdin: Bench note: what TGI did Cc1cc(Nc2ccc(C)c(Cl)c2)n2nc(C(F)(F)F)nc2n1 show?
stdout: > 100 µM

stdin: Bench note: what TGI did O=C1c2cccc3cc([N+](=O)[O-])cc(c23)C(=O)N1Nc1ccc([N+](=O)[O-])cc1[N+](=O)[O-] show?
stdout: 18 µM

stdin: Bench note: what TGI did Cc1[nH]c(=O)nc2sc(=NC3CCCCC3)n(C3CCCCC3)c(=O)c12 show?
stdout: > 100 µM

stdin: Bench note: what TGI did CCOC(=O)CCC(NC(=O)C(N)Cc1ccc(N(CCCl)CCCl)cc1)C(=O)OCC (stereo unspecified) show?
stdout: 2.18 µM

stdin: Bench note: what TGI did C=CCNC(=S)N/C=C(\C#N)C(N)=O show?
stdout: > 100 µM

stdin: Bench note: what TGI did Cc1ccc(Nc2nc(NNC(=O)Cc3ccccc3)nc(NNC(=O)c3ccncc3)n2)cc1 show?
stdout: > 10 µM

stdin: Bench note: what TGI did O=C(NC1C=CCC2C(=O)N(c3ccccc3)C(=O)C12)OCc1ccccc1 (stereo unspecified) show?
stdout: > 100 µM

###

- System: NCI-H23 lung
- procedure_text: NCI tumour cell line growth inhibition, 48 h
Measured TGI, listed per entry.
Report the figure in µM without appending any unit label.

In the examples that follow, each entry is paired with its recorded TGI.
molecule: OC(c1cc(C(F)(F)F)nc2c(C(F)(F)F)cccc12)C1CCCCN1 (configuration not stated)
study_target: NCI-H23 lung
measured: 11.3
--
molecule: O=C1c2ccccc2C(=O)c2c(/C=C\N3CCCCC3)ccnc21
study_target: NCI-H23 lung
measured: 1.31

Okay, now this molecule:
stdin: Bench note: what TGI did C(=C/CCCN1O[C@@H](CCCCCCCCc2cccnc2)[C@H]2CCC[C@H]21)/CCCCCCCCCc1cccnc1 show?
stdout: 61.7

###

- Test system: DU-145 prostate
- procedure_text: NCI tumour cell line growth inhibition, 48 h
Measured TGI, listed per entry.

In the examples that follow, each entry is paired with its recorded TGI.
compound: Cc1ccc(Nc2nc(NNC(=O)Cc3ccccc3)nc(NNC(=O)c3ccncc3)n2)cc1
measured_endpoint: TGI
measured: > 10 µM

compound: Cc1ccc(S(=O)(=O)N2CC2CCCCC=O)cc1 (stereo not given)
measured_endpoint: TGI
measured: > 100 µM

compound: CCOC(=O)/C(C#N)=C/c1coc2cc(C)cc(C)c2c1=O
measured_endpoint: TGI
measured: > 100 µM

compound: CO[C@](C(=O)OC[C@H]1[C@@H](COC(C)=O)[C@@H]2O[C@H]1c1cc3c(cc12)OCO3)(c1ccccc1)C(F)(F)F
measured_endpoint: TGI
measured: > 100 µM

Okay, now this compound:
stdin: Bench note: what TGI did O=C1NC(=NCc2ccccc2)S/C1=C\c1ccc2ncccc2c1 show?
stdout: > 25 µM
